All figures here come from patent US12479843B2.

Recorded inhibition at 1 µM values for a group of compounds are listed next.
Test system: pERK level in H358 cells
protocol details: pERK and ERK protein content assay in H358 cells (ELISA)
Format: cell-based
test parameters: Homo sapiens, NCI-H358, compound 1 μM, 24 h, pERK/ERK ratio compared with DMSO group, read-out: Inhibition rate (%) of pERK level

1. C=CC(=O)N1CC2(CCN(c3nc(N(C)CCN4CC[C@H](OC)C4)nc4c(OCC(F)(F)F)c(-c5c(C)ccc6[nH]ncc56)c(C5CC5)cc34)CC2)C1 = > 90%

Enquiry: Report inhibition at 1 µM for C=CC(=O)N1CC2(CCN(c3nc(N4CC[C@H](N5C6CCC5CC6)C4)nc4c(OCC(F)(F)F)c(-c5c(C)ccc6[nH]ncc56)c(C5CC5)cc34)CC2)C1 please.
Return: > 90%

Enquiry: Same question, C=CC(=O)N1CC2(CCN(c3nc(N4CC5(CCN(CCOC)CC5)C4)nc4c(OCC(F)(F)F)c(-c5c(C)ccc6[nH]ncc56)c(C5CC5)cc34)CC2)C1 this time
Return: > 90%
